# experimental-system: CCR2 (Homo sapiens)
# Construct: Membranes were prepared from THP-1 cells; endogenous in cells; host or cells: THP-1 cells (membrane preparation)
# Sequence (P41597 1-360 isoform P41597-2): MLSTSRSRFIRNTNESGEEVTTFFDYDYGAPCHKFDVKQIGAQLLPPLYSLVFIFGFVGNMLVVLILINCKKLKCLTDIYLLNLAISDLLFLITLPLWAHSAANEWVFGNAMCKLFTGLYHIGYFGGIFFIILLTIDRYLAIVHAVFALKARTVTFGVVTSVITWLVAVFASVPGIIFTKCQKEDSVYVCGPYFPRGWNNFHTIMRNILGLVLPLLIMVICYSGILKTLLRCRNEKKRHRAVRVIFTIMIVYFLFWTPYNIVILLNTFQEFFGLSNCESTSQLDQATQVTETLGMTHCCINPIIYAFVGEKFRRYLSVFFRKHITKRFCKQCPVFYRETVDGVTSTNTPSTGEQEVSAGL
# measurement-notes: CCR2 receptor membrane binding assay ([125I]MCP-1, THP-1 cell membranes, SPA beads)
# conditions: @ 10 μM test compound; THP-1 membranes; read-out: CCR2 % ctrl @ 10 μM
measured-parameter: remaining activity at 10 µM (%)
Response body: numeric value in %, unit text excluded.

Example entries begin here.
>  <compound>
Cc1c(NCc2ccc(C(C)(C)C)cc2)ncnc1C(=O)N1CCCC(N2CCCC2)CC1 (stereo not drawn) [Example 163]

>  <experimental-system>
CCR2 (Homo sapiens)

>  <value-observed>
32

$$$$
>  <compound>
Cc1c(NCCc2ccc(Cl)c(Cl)c2)ncnc1C(=O)N1CCC(N2CCC[C@@H](NS(C)(=O)=O)C2)CC1 [Example 174]

>  <experimental-system>
CCR2 (Homo sapiens)

>  <value-observed>
53

$$$$
>  <compound>
Cc1c(NCc2ccc(C(C)(C)C)cc2)ncnc1C(=O)N1CCCC(N2CCC(N(C)S(C)(=O)=O)CC2)CC1 (stereo not drawn) [Example 161]

>  <experimental-system>
CCR2 (Homo sapiens)

>  <value-observed>
30

$$$$
>  <compound>
Cc1c(OCc2ccc(C#N)cc2)ncnc1C(=O)N1CCC(N2CCC(N(C)S(C)(=O)=O)CC2)CC1 [Example 293]

>  <experimental-system>
CCR2 (Homo sapiens)

>  <value-observed>
27

$$$$
>  <compound>
Cc1c(NCCc2ccc(Cl)c(Cl)c2)ncnc1C(=O)N1CCC(N2CCC(C(N)=O)CC2)CC1 [Example 172]

>  <experimental-system>
CCR2 (Homo sapiens)

>  <value-observed>
28

$$$$
>  <compound>
Cc1c(NCCc2ccc(Cl)c(Cl)c2)ncnc1C(=O)N1CCC(N2CC[C@H](O)C2)CC1 [Example 166]

>  <experimental-system>
CCR2 (Homo sapiens)

>  <value-observed>
16

$$$$
>  <compound>
Cc1c(NCCc2ccc(F)c(F)c2)ncnc1C(=O)N1CCC(N2CCC(O)CC2)CC1 [Example 115]

>  <experimental-system>
CCR2 (Homo sapiens)

>  <value-observed>
33

$$$$
>  <compound>
Cc1c(NCc2cc(F)cc(C(F)(F)F)c2)ncnc1C(=O)N1CCC(N2CCC(O)CC2)CC1 [Example 6]

>  <experimental-system>
CCR2 (Homo sapiens)

>  <value-observed>
41

$$$$

[ask] Report remaining activity at 10 µM for Cc1c(NCC2Cc3ccccc32)ncnc1C(=O)N1CCC(N2CCC(O)CC2)CC1 (stereo not drawn) [Example 26] please.
[reply] 30

[ask] Param item: COc1ccc(CCNc2ncnc(C(=O)N3CCC(N4CCC(O)CC4)CC3)c2C)cc1Cl [Example 105]
[reply] 31

[ask] Param item: Cc1c(NCC2CCN(c3ccccc3)C2)ncnc1C(=O)N1CCC(N2CCOCC2)CC1 (stereo not drawn) [Example 51]
[reply] 13

[ask] Param item: Cc1c(NCC2CCCC(c3ccccc3)C2)ncnc1C(=O)N1CCC(N2CCC(O)CC2)CC1 (stereo not drawn) [Example 114]
[reply] 8

[ask] Param item: Cc1noc(C2CCN(C3CCN(C(=O)c4ncnc(NCc5ccc(C(C)(C)C)cc5)c4C)CC3)CC2)n1 [Example 213]
[reply] 14

[ask] Param item: Cc1c(NCc2ccc(C(F)(F)F)c(Cl)c2)ncnc1C(=O)N1CCC(N2CCCCC2)CC1 [Example 133]
[reply] 15

[ask] Param item: Cc1c(NC[C@@H]2CCC[C@H](c3ccccc3)C2)ncnc1C(=O)N1CCC(N2CCC(N(C)S(C)(=O)=O)CC2)CC1 [Example 151]
[reply] 7

[ask] Param item: Cc1c(NCC2CCCN(c3ccc(C#N)c(Cl)c3)C2)ncnc1C(=O)N1CCC(N2CCC(N(C)S(C)(=O)=O)CC2)CC1 (stereo not drawn) [Example 154]
[reply] 15

[ask] Param item: Cc1cc(COc2ncnc(C(=O)N3CCC(N4CCC(N(C)S(C)(=O)=O)CC4)CC3)c2C)ccc1Cl [Example 292]
[reply] 15
